MIC90 values, listed per item
Tested on: baseline pathogens of bacterial conjunctivitis patients
Test summary: MIC of baseline clinical trial isolates, Studies 373, 433, 434 (all species)
Assay type: cell-based
Conditions: Gram-negative, N 438
// units = µg/mL; emit number, no label

The examples below pair each entry with its known result.
1) CC1COc2c(N3CCN(C)CC3)c(F)cc3c(=O)c(C(=O)O)cn1c23 (centres unmarked) | 0.25
2) COc1c(N2CCNC(C)C2)c(F)cc2c(=O)c(C(=O)O)cn(C3CC3)c12 (centres unmarked) | 0.25
3) C[C@H]1COc2c(N3CCN(C)CC3)c(F)cc3c(=O)c(C(=O)O)cn1c23 | 0.125

From here, focus on the item given below.
[in] Recorded MIC90 of `N[C@@H]1CCCCN(c2c(F)cc3c(=O)c(C(=O)O)cn(C4CC4)c3c2Cl)C1` , please.
[out] 0.5

----------
Tested on: Staphylococcus lugdunensis
Test summary: MIC, CLSI broth microdilution, clinical isolates
Assay type: cell-based
Conditions: Staphylococcus lugdunensis (N = 15)
MIC50 values, listed per item
// units = µg/mL; emit number, no label

The examples below pair each entry with its known result.
1. COc1c(N2CCNC(C)C2)c(F)cc2c(=O)c(C(=O)O)cn(C3CC3)c12 (stereo not drawn) | 0.12
2. C[C@H]1COc2c(N3CCN(C)CC3)c(F)cc3c(=O)c(C(=O)O)cn1c23 | 0.25

[in] Reported MIC50 for Staphylococcus lugdunensis, given `N[C@@H]1CCCCN(c2c(F)cc3c(=O)c(C(=O)O)cn(C4CC4)c3c2Cl)C1` ?
[out] 0.06

----------
MIC50 values, listed per item
Tested on: Staphylococcus aureus
Test summary: MIC, CLSI broth microdilution, clinical isolates
Type: cell-based
Conditions: Staphylococcus aureus, MRSA, Staphylococcus aureus (MRSA, N = 11)
// units = µg/mL; emit number, no label

The examples below pair each entry with its known result.
1. COc1c(N2CCNC(C)C2)c(F)cc2c(=O)c(C(=O)O)cn(C3CC3)c12 (stereo not drawn) [Gatifloxacin] | 2
2. C[C@H]1COc2c(N3CCN(C)CC3)c(F)cc3c(=O)c(C(=O)O)cn1c23 [Levofloxacin] | 4
3. N[C@@H]1CCCCN(c2c(F)cc3c(=O)c(C(=O)O)cn(C4CC4)c3c2Cl)C1 [Besifloxacin] | 0.5

From here, focus on the item given below.
[in] Recorded MIC50 of NC[C@H]1O[C@H](O[C@H]2[C@H](O)[C@@H](O[C@H]3O[C@H](CO)[C@@H](O)[C@H](N)[C@H]3O)[C@H](N)C[C@@H]2N)[C@H](N)C[C@@H]1O [Tobramycin] , please.
[out] 1

----------
MIC50 values, listed per item
Test system: Klebsiella oxytoca
Test summary: MIC, CLSI broth microdilution, clinical isolates
Type: cell-based
Conditions: Klebsiella oxytoca (N = 50)
// units = µg/mL; emit number, no label

The examples below pair each entry with its known result.
1. COc1c(N2C[C@@H]3CCCN[C@@H]3C2)c(F)cc2c(=O)c(C(=O)O)cn(C3CC3)c12 [Moxifloxacin] | 0.06
2. COc1c(N2CCNC(C)C2)c(F)cc2c(=O)c(C(=O)O)cn(C3CC3)c12 (stereo not shown) [Gatifloxacin] | 0.03

From here, focus on the item given below.
[in] Recorded MIC50 of N[C@@H]1CCCCN(c2c(F)cc3c(=O)c(C(=O)O)cn(C4CC4)c3c2Cl)C1 [Besifloxacin] , please.
[out] 0.12

----------
System: Staphylococcus aureus
Test summary: MIC, CLSI broth microdilution, clinical isolates
Assay type: cell-based
Conditions: Staphylococcus aureus, MRSA, Staphylococcus aureus (MRSA, N = 11)
Assay endpoint: MIC90

1) CC[C@H]1OC(=O)[C@H](C)[C@@H](O[C@H]2C[C@@](C)(OC)[C@@H](O)[C@H](C)O2)[C@H](C)[C@@H](O[C@@H]2O[C@H](C)C[C@H](N(C)C)[C@H]2O)[C@](C)(O)C[C@@H](C)CN(C)[C@H](C)[C@@H](O)[C@]1(C)O | > 8 µg/mL
2) NC[C@H]1O[C@H](O[C@H]2[C@H](O)[C@@H](O[C@H]3O[C@H](CO)[C@@H](O)[C@H](N)[C@H]3O)[C@H](N)C[C@@H]2N)[C@H](N)C[C@@H]1O | > 32 µg/mL
3) COc1c(N2CCNC(C)C2)c(F)cc2c(=O)c(C(=O)O)cn(C3CC3)c12 (stereo not drawn) | > 8 µg/mL
4) N[C@@H]1CCCCN(c2c(F)cc3c(=O)c(C(=O)O)cn(C4CC4)c3c2Cl)C1 | 4 µg/mL
5) C[C@H]1COc2c(N3CCN(C)CC3)c(F)cc3c(=O)c(C(=O)O)cn1c23 | > 8 µg/mL

From here, focus on the item given below.
[in] Recorded MIC90 of `Cc1onc(-c2ccccc2)c1C(=O)N[C@@H]1C(=O)N2[C@@H]1SC(C)(C)[C@@H]2C(=O)O` , please.
[out] > 8 µg/mL

----------
System: Staphylococcus saprophyticus
Test summary: MIC, CLSI broth microdilution, clinical isolates
Format: cell-based
Conditions: Staphylococcus saprophyticus (N = 101)
Assay endpoint: log10(MIC50) (log10 of the value in µg/mL)
Log10 applied to MIC50; unit prior to transform: µg/mL.

1. CC[C@H]1OC(=O)[C@H](C)[C@@H](O[C@H]2C[C@@](C)(OC)[C@@H](O)[C@H](C)O2)[C@H](C)[C@@H](O[C@@H]2O[C@H](C)C[C@H](N(C)C)[C@H]2O)[C@](C)(O)C[C@@H](C)CN(C)[C@H](C)[C@@H](O)[C@]1(C)O [Azithromycin] | 0.00

[in] Reported log10(MIC50) for Staphylococcus saprophyticus, given NC[C@H]1O[C@H](O[C@H]2[C@H](O)[C@@H](O[C@H]3O[C@H](CO)[C@@H](O)[C@H](N)[C@H]3O)[C@H](N)C[C@@H]2N)[C@H](N)C[C@@H]1O [Tobramycin] ?
[out] -1.82

[in] Reported log10(MIC50) for Staphylococcus saprophyticus, given N[C@@H]1CCCCN(c2c(F)cc3c(=O)c(C(=O)O)cn(C4CC4)c3c2Cl)C1 [Besifloxacin] ?
[out] -1.22

[in] Reported log10(MIC50) for Staphylococcus saprophyticus, given Cc1onc(-c2ccccc2)c1C(=O)N[C@@H]1C(=O)N2[C@@H]1SC(C)(C)[C@@H]2C(=O)O [Oxacillin] ?
[out] -0.30

[in] Reported log10(MIC50) for Staphylococcus saprophyticus, given C[C@H]1COc2c(N3CCN(C)CC3)c(F)cc3c(=O)c(C(=O)O)cn1c23 [Levofloxacin] ?
[out] -0.30

[in] Reported log10(MIC50) for Staphylococcus saprophyticus, given COc1c(N2CCNC(C)C2)c(F)cc2c(=O)c(C(=O)O)cn(C3CC3)c12 (stereo not drawn) [Gatifloxacin] ?
[out] -0.92

----------
Test system: Staphylococcus lugdunensis
Test summary: MIC, CLSI broth microdilution, clinical isolates
Assay type: cell-based
Conditions: Staphylococcus lugdunensis (N = 15)
MIC50 values, listed per item
// units = µg/mL; emit number, no label

1) NC[C@H]1O[C@H](O[C@H]2[C@H](O)[C@@H](O[C@H]3O[C@H](CO)[C@@H](O)[C@H](N)[C@H]3O)[C@H](N)C[C@@H]2N)[C@H](N)C[C@@H]1O | 0.12

[in] Reported MIC50 for Staphylococcus lugdunensis, given `Cc1onc(-c2ccccc2)c1C(=O)N[C@@H]1C(=O)N2[C@@H]1SC(C)(C)[C@@H]2C(=O)O` ?
[out] 0.5

----------
System: Staphylococcus aureus
Test summary: MIC, CLSI broth microdilution, clinical isolates
Format: cell-based
Conditions: Staphylococcus aureus, MSSA, Staphylococcus aureus (MSSA, N = 19)
Assay endpoint: MIC90

1) NC[C@H]1O[C@H](O[C@H]2[C@H](O)[C@@H](O[C@H]3O[C@H](CO)[C@@H](O)[C@H](N)[C@H]3O)[C@H](N)C[C@@H]2N)[C@H](N)C[C@@H]1O | 1 µg/mL
2) N[C@@H]1CCCCN(c2c(F)cc3c(=O)c(C(=O)O)cn(C4CC4)c3c2Cl)C1 | 0.25 µg/mL
3) CC[C@H]1OC(=O)[C@H](C)[C@@H](O[C@H]2C[C@@](C)(OC)[C@@H](O)[C@H](C)O2)[C@H](C)[C@@H](O[C@@H]2O[C@H](C)C[C@H](N(C)C)[C@H]2O)[C@](C)(O)C[C@@H](C)CN(C)[C@H](C)[C@@H](O)[C@]1(C)O | > 8 µg/mL
4) C[C@H]1COc2c(N3CCN(C)CC3)c(F)cc3c(=O)c(C(=O)O)cn1c23 | 4 µg/mL
5) Cc1onc(-c2ccccc2)c1C(=O)N[C@@H]1C(=O)N2[C@@H]1SC(C)(C)[C@@H]2C(=O)O | 0.5 µg/mL

From here, focus on the item given below.
[in] Recorded MIC90 of COc1c(N2CCNC(C)C2)c(F)cc2c(=O)c(C(=O)O)cn(C3CC3)c12 (stereo not drawn) , please.
[out] 2 µg/mL
